Exercise: for every item that follows, state its recorded inhibition.
# target.of.assay: Cytosolic phospholipase A2 (Homo sapiens)
# measurement.protocol: Inhibition of C-terminal 6xHis-tagged human group IVA cytosolic PLA2 expressed in fall armyworm sf9 cells at 0.091 mol fraction using PAPC/arachidonyl-1-14C PAPC as substrate by mixed micelle modified Dole assay
Numbers only, in %.

Examples with their reported inhibition follow.
> print(dat)
                                    compound  property.label  measured.result
 1     O=C(CSc1ccc([N+](=O)[O-])cc1)C(F)(F)F      inhibition               26
 2           CCCCCCS(=O)(=O)CC(O)(O)C(F)(F)F      inhibition               14
 3               O=C(CSc1cccc(Cl)c1)C(F)(F)F      inhibition               91
 4     CCCCCCCCCCCCS(=O)(=O)CC(O)(O)C(F)(F)F      inhibition               34
 5                Cc1ccc(SCC(=O)C(F)(F)F)cc1      inhibition               61
 6  CCCCCCCCS(=O)(=O)CC(O)C(F)(F)F (centres undefined)      inhibition                5
 7                 CCCCCCCCCCSCC(=O)C(F)(F)F      inhibition              100
 8                     CCCCCCOCC(=O)C(F)(F)F      inhibition               76
 9         CCCCCCCCS(=O)(=O)CC(O)(O)C(F)(F)F      inhibition               19
10  CCCCCCCCCCCCS(=O)(=O)CC(O)C(F)(F)F (centres undefined)      inhibition                2

Could you report inhibition for every entry in the following list?
1. O=C(CSc1ccc(F)cc1)C(F)(F)F
2. CCCCCCCCCCCCSCC(=O)C(F)(F)F
3. O=C(CSCCc1ccccc1)C(F)(F)F
4. O=C(CSc1c(Cl)cccc1Cl)C(F)(F)F

24
83
92
91

----------
# target.of.assay: 85/88 kDa calcium-independent phospholipase A2 (Homo sapiens)
# measurement.protocol: Inhibition of N-terminal 6xHis-tag human group VIA calcium-independent PLA2 expressed in fall armyworm sf9 cells at 0.091 mol fraction using PAPC/arachidonyl-1-14C PAPC as substrate by mixed micelle modified Dole assay
property.label: inhibition

// worked examples, inhibition included
> print(dat)
                                   compound  measured.result
1                 CCCCCCCCCCSCC(=O)C(F)(F)F              99%
2               O=C(CSc1cccc(Cl)c1)C(F)(F)F              98%
3           CCCCCCS(=O)(=O)CC(O)(O)C(F)(F)F              71%
4  CCCCCCCCS(=O)(=O)CC(O)C(F)(F)F (centres undefined)              24%
5                CCCCCCCCCCCSCC(=O)C(F)(F)F              98%

Dear colleague, could you send me inhibition for each of the items below? Thanks.
1. CCCCCCCCSCC(=O)C(F)(F)F
2. CCCCCCS(=O)(=O)CC(O)C(F)(F)F (centres undefined)
3. CCCCCCSCC(=O)C(F)(F)F
4. Cc1ccc(SCC(=O)C(F)(F)F)cc1

1. 99%
2. 15%
3. 99%
4. 95%

----------
# target.of.assay: 85/88 kDa calcium-independent phospholipase A2 (Homo sapiens) (UniProt O60733)
# Sequence (O60733 whole entry): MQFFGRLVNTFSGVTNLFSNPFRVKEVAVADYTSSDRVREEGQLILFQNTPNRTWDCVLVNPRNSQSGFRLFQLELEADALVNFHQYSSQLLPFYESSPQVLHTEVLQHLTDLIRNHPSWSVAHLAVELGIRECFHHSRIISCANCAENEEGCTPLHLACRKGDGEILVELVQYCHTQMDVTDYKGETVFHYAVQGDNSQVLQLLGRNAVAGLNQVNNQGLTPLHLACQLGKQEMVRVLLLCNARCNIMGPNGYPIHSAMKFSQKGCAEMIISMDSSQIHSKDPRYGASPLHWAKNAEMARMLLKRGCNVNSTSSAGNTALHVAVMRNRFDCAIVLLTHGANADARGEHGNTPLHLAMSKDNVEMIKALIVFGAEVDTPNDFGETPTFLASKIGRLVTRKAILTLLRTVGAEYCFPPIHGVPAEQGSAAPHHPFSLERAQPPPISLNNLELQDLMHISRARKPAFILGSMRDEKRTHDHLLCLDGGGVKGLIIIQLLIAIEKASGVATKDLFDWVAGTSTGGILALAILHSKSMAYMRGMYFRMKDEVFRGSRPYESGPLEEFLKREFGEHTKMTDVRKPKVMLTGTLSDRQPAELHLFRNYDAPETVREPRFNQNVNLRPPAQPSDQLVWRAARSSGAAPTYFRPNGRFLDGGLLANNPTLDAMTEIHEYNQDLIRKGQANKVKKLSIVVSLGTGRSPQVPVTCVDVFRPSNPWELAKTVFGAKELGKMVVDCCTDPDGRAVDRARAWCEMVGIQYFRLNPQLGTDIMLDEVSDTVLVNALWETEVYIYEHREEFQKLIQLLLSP
# measurement.protocol: Inhibition of N-terminal 6xHis-tag human group VIA calcium-independent PLA2 expressed in fall armyworm sf9 cells at 0.091 mol fraction using PAPC/arachidonyl-1-14C PAPC as substrate by mixed micelle modified Dole assay
Label satisfied when pXI50 is at or above 3; otherwise label not satisfied.

> print(dat)
             smiles.repr                           target.of.assay  classification
1  CCCCCCSCC(=O)C(F)(F)F  85/88 kDa calcium-independent phospholipase A2 (Homo sapiens) (UniProt O60733)       satisfied

Has CCCCCCOCC(=O)C(F)(F)F a recorded pXI50 greater than or equal to 3?
not satisfied

Check this compound for pXI50 at or above 3: O=C(CSc1ccc(Cl)cc1)C(F)(F)F
not satisfied

I'd appreciate it if you could say whether O=C(CSc1ccc(Br)cc1)C(F)(F)F has pXI50 at least equal to 3.
not satisfied

Would you say CCCCCCCCCCCCSCC(=O)C(F)(F)F shows pXI50 at minimum 3?
not satisfied

State whether the measured pXI50 reaches 3, counting equality as reaching it, for O=C(CSCCc1ccccc1)C(F)(F)F
satisfied

Check if pXI50 >= 3 (inclusive). Item: COc1ccc(SCC(=O)C(F)(F)F)cc1
not satisfied

Is pXI50 at least 3? Consider CCCCCCCCCCSCC(=O)C(F)(F)F
satisfied
